test-name: Metabolic stability in rat liver microsomes assessed as intrinsic clearance
Type: ADME, Microsome
measurement-conditions: read-out: CLH

{"columns": ["smiles-input", "microsomal CLint"],
 "data": [
  ["Cc1cccc(N(C)c2nccc(-c3cnn4ncccc34)n2)c1", "805 µL/min/mg"]
]}

====

tested-system: Dual specificity tyrosine-phosphorylation-regulated kinase 1A (Homo sapiens)
pKd: −log10 of the molar value.
measurement-name: pKd

{"columns": ["smiles-input", "tested-system", "measurement-name", "recorded-number"],
 "data": [
  ["Cc1cccc(Nc2nccc(-c3cnn4ncccc34)n2)c1", "Dual specificity tyrosine-phosphorylation-regulated kinase 1A (Homo sapiens)", "pKd", 8.05]
]}
